- Tested on: Hep 3B2
- Test Description: Cytotoxicity against human Hep3B cells assessed as reduction in cell viability
- Type: functional, cell-based

{"columns": ["Structure As Smiles", "IC50"],
 "data": [
  ["CN1CCN(c2cc3c(cc2F)c(=O)c(-c2nc4s/c(=C\\c5ccc(S(N)(=O)=O)cc5)c(=O)n4n2)cn3C2CC2)CC1", "0.7 µM"],
  ["CN1CCN(c2cc3c(cc2F)c(=O)c(-c2nc4s/c(=C\\c5ccc(C#N)cc5)c(=O)n4n2)cn3C2CC2)CC1", "> 10 µM"],
  ["CN1CCN(c2cc3c(cc2F)c(=O)c(-c2nc4s/c(=C\\c5cccc(C(=O)O)c5)c(=O)n4n2)cn3C2CC2)CC1", "0.3 to 8.4 µM"],
  ["CN1CCN(c2cc3c(cc2F)c(=O)c(-c2nc4s/c(=C\\c5ccc(C(=O)O)cc5)c(=O)n4n2)cn3C2CC2)CC1", "0.3 to 8.4 µM"],
  ["CN1CCN(c2cc3c(cc2F)c(=O)c(-c2nc4s/c(=C\\c5ccc([N+](=O)[O-])cc5)c(=O)n4n2)cn3C2CC2)CC1", "0.3 to 8.4 µM"],
  ["COc1ccccc1/C=c1\\sc2nc(-c3cn(C4CC4)c4cc(N5CCN(C)CC5)c(F)cc4c3=O)nn2c1=O", "> 10 µM"],
  ["COC(=O)c1ccc(/C=c2\\sc3nc(-c4cn(C5CC5)c5cc(N6CCN(C)CC6)c(F)cc5c4=O)nn3c2=O)cc1", "0.3 to 8.4 µM"],
  ["CN1CCN(c2cc3c(cc2F)c(=O)c(-c2nc4s/c(=C\\c5ccc(Cl)cc5)c(=O)n4n2)cn3C2CC2)CC1", "> 10 µM"],
  ["COc1cccc2c1C(=O)c1c(O)c3c(c(O)c1C2=O)C[C@@](O)(C(=O)CO)C[C@@H]3O[C@H]1C[C@H](N)[C@H](O)[C@H](C)O1", "2.6 µM"],
  ["COc1ccc(/C=c2\\sc3nc(-c4cn(C5CC5)c5cc(N6CCN(C)CC6)c(F)cc5c4=O)nn3c2=O)cc1", "> 10 µM"],
  ["Cc1ccc(/C=c2\\sc3nc(-c4cn(C5CC5)c5cc(N6CCN(C)CC6)c(F)cc5c4=O)nn3c2=O)cc1", "> 10 µM"],
  ["COC(=O)c1cccc(/C=c2\\sc3nc(-c4cn(C5CC5)c5cc(N6CCN(C)CC6)c(F)cc5c4=O)nn3c2=O)c1", "0.3 to 8.4 µM"],
  ["CN1CCN(c2cc3c(cc2F)c(=O)c(-c2nc4s/c(=C\\c5cccc(C#N)c5)c(=O)n4n2)cn3C2CC2)CC1", "> 10 µM"],
  ["CN1CCN(c2cc3c(cc2F)c(=O)c(-c2nc4s/c(=C\\c5cccc(S(N)(=O)=O)c5)c(=O)n4n2)cn3C2CC2)CC1", "0.3 to 8.4 µM"],
  ["CN1CCN(c2cc3c(cc2F)c(=O)c(-c2nc4s/c(=C\\c5cccc([N+](=O)[O-])c5)c(=O)n4n2)cn3C2CC2)CC1", "0.3 to 8.4 µM"]
]}

###

- System: HepG2
- Test Description: Cytotoxicity against human HepG2 cells assessed as reduction in cell viability after 48 hrs by MTT assay
- Assay type: functional, cell-based
- Experimental Setup: HepG2, 48 h
pIC50: −log10 of the molar value.
Endpoint Label: pIC50

{"columns": ["Molecule", "Target Desc", "Endpoint Label", "Measured"],
 "data": [
  ["O=C(O)c1c(-c2ccc[nH]2)[nH]c2ccccc2c1=O [PENICINOLINE]", "HepG2", "pIC50", 8.15]
]}

###

- Tested on: A549
- Test Description: Cytotoxicity against human A549 cells assessed as reduction in cell viability
- Assay type: functional, cell-based
IC50 values for the compounds below.
Endpoint Label: IC50

{"columns": ["Compound", "Measured"],
 "data": [
  ["COc1ccc(NC2CCN(C3C(F)=Cc4c5n(cc(C(=O)O)c4=O)-c4ccccc4OC53)C2)cc1 (centres undefined)", "0.011 to 0.59 µg/mL"],
  ["Cc1cccc(C)c1NC1CCN(C2C(F)=Cc3c4n(cc(C(=O)O)c3=O)-c3ccccc3OC42)C1 (centres undefined)", "0.011 to 0.59 µg/mL"],
  ["CC(C)(C)c1cccc(NC2CCN(C3C(F)=Cc4c5n(cc(C(=O)O)c4=O)-c4ccccc4OC53)C2)c1 (centres undefined)", "0.011 to 0.59 µg/mL"],
  ["NC1CCN(C2C(F)=Cc3c4n(cc(C(=O)O)c3=O)-c3ccccc3OC42)C1 (centres undefined)", "0.011 to 0.59 µg/mL"],
  ["O=C(/C=C(O)/C=C/c1cc2ccccc2[nH]c1=O)/C=C/c1cc2ccccc2[nH]c1=O", "31.5 µM"],
  ["Cc1ccccc1NC1CCN(C2C(F)=Cc3c4n(cc(C(=O)O)c3=O)-c3ccccc3OC42)C1 (centres undefined)", "0.011 to 0.59 µg/mL"],
  ["CCC[C@H](N)C(=O)NC1CCN(C2C(F)=Cc3c4n(cc(C(=O)O)c3=O)-c3ccccc3OC42)C1 (some centres undefined)", "0.01 to 1 µg/mL"],
  ["O=C(O)c1cn2c3c(c1=O)C=C(F)C(N1CCC(Nc4ccccc4)C1)C3Oc1ccccc1-2 (centres undefined)", "0.011 to 0.59 µg/mL"],
  ["Cc1ccc(NC2CCN(C3C(F)=Cc4c5n(cc(C(=O)O)c4=O)-c4ccccc4OC53)C2)cc1 (centres undefined)", "0.011 to 0.59 µg/mL"]
]}

###

What follows is a record of IC50 for RAC-gamma serine/threonine-protein kinase (Homo sapiens).

{"columns": ["Structure As Smiles", "IC50"],
 "data": [
  ["Cc1ccc2[nH]c(=O)c(C(=O)/C=C/c3nc4ccccc4[nH]3)c(-c3ccccc3)c2c1", "1.64 to 44.5 µM"],
  ["Cc1ccc2[nH]c(/C=C/C(=O)c3c(-c4ccccc4)c4cc(Cl)ccc4[nH]c3=O)nc2c1", "1.64 to 44.5 µM"]
]}

###

- Tested on: Hep 3B2
- Test Description: Cytotoxicity against human Hep3B cells assessed as reduction in cell viability by MTT assay
- Format: functional, cell-based
Below is a list of entries, each paired with its recorded IC50 value.
Endpoint Label: IC50

{"columns": ["Compound", "Measured"],
 "data": [
  ["COc1cc(-c2csc3nc(-c4cn5c6c(c(N7CCN(C)CC7)c(F)cc6c4=O)OCC5C)nn23)ccc1O (stereo unspecified)", "3.6 to 56.8 µM"],
  ["CCn1cc(-c2nc(SCc3nnc(-c4ccc(C)cc4)o3)n(CN(C)C)n2)c(=O)c2cc(F)c(N3CCN(C)CC3)cc21", "1.5 to 24.5 µM"],
  ["CC1COc2c(N3CCN(C)CC3)c(F)cc3c(=O)c(-c4nc5scc(-c6ccc7c(c6)OCO7)n5n4)cn1c23 (stereo unspecified)", "3.6 to 56.8 µM"],
  ["CCn1cc(-c2nc3scc(-c4ccc(O)cc4)n3n2)c(=O)c2cc(F)c(N3CCN(C)CC3)cc21", "3.6 to 56.8 µM"],
  ["CC1COc2c(N3CCN(C)CC3)c(F)cc3c(=O)c(-c4nc5scc(-c6ccc(Cl)cc6)n5n4)cn1c23 (stereo unspecified)", "3.6 to 56.8 µM"],
  ["COc1cccc2c1C(=O)c1c(O)c3c(c(O)c1C2=O)C[C@@](O)(C(=O)CO)C[C@@H]3O[C@H]1C[C@H](N)[C@H](O)[C@H](C)O1 [DOXORUBICIN]", "1.8 to 3.5 µM"],
  ["CC1COc2c(N3CCN(C)CC3)c(F)cc3c(=O)c(-c4nc5scc(-c6ccc(O)cc6)n5n4)cn1c23 (stereo unspecified)", "3.6 to 56.8 µM"],
  ["CCn1cc(-c2nc3scc(-c4ccc5c(c4)OCO5)n3n2)c(=O)c2cc(F)c(N3CCN(C)CC3)cc21", "3.6 to 56.8 µM"],
  ["CN1CCN(c2cc3c(cc2F)c(=O)c(-c2nc4scc(-c5ccc(F)cc5)n4n2)cn3C2CC2)CC1", "3.6 to 56.8 µM"],
  ["CCn1cc(-c2nnc(SCc3nnc(-c4cccc(C)c4)o3)[nH]2)c(=O)c2cc(F)c(N3CCN(C)CC3)cc21", "3.8 to 35.2 µM"],
  ["Cc1ccc(-c2csc3nc(-c4cn(C5CC5)c5cc(N6CCN(C)CC6)c(F)cc5c4=O)nn23)cc1", "3.6 to 56.8 µM"],
  ["CCn1cc(-c2nc3scc(-c4ccc(OC)c(O)c4)n3n2)c(=O)c2cc(F)c(N3CCN(C)CC3)cc21", "3.6 to 56.8 µM"],
  ["CC1COc2c(N3CCN(C)CC3)c(F)cc3c(=O)c(-c4nc5scc(-c6ccc([N+](=O)[O-])cc6)n5n4)cn1c23 (stereo unspecified)", "3.6 to 56.8 µM"],
  ["CCn1cc(-c2nc(SCc3nnc(-c4cc(OC)c(OC)c(OC)c4)o3)n(CN(C)C)n2)c(=O)c2cc(F)c(N3CCN(C)CC3)cc21", "1.5 to 24.5 µM"],
  ["CCn1cc(-c2nnc(SCc3nnc(-c4cc(OC)c(OC)c(OC)c4)o3)[nH]2)c(=O)c2cc(F)c(N3CCN(C)CC3)cc21", "3.8 to 35.2 µM"],
  ["CCn1cc(-c2nc3scc(-c4ccccc4O)n3n2)c(=O)c2cc(F)c(N3CCN(C)CC3)cc21", "3.6 to 56.8 µM"]
]}

Taken from ChEMBL document CHEMBL4613209.
